test_protocol: Cmax in mouse at 10 mg/kg, po
Format: ADME, organism-based
Design: dose 10 mg/kg, route oral
condition_details: in vivo
outcome_measure: Cmax (ng/mL)
Provide only the numeric value, understood in ng/mL.

Exercise: Indicate its recorded Cmax; the molecule in question is `Cc1ccc(NC(=O)c2cccc(C(F)(F)F)c2)cc1N1Cc2cnc(N)nc2N(C)C1=O`
Solution: 2410

----------
test_protocol: Growth inhibition of parental mouse BA/F3 cells after 72 hrs by celltiter-glo assay
Format: cell-based, BaF3
The following compounds are shown together with reported GI50 at 72 h values.
Provide only the numeric value, understood in nM.

Sample records with GI50 at 72 h:
compound	GI50 at 72 h, nM
Cc1ccc(NC(=O)c2ccc(CN3CCC(N(C)C)C3)c(C(F)(F)F)c2)cc1N1Cc2cnc(Nc3cnn(C)c3)nc2N(C)C1=O (configuration not stated)	414
Cc1ccc(Nc2ncc3c(n2)N(C)C(=O)N(c2cc(NC(=O)c4cccc(C(F)(F)F)c4)ccc2C)C3)cn1	1030
Cc1ccc(Nc2ncc3c(n2)N(C)C(=O)N(c2cc(NC(=O)c4ccccc4)ccc2C)C3)cn1	2700
CC(=O)N1CCN(c2ccc(Nc3ncc4c(n3)N(C)C(=O)N(c3cc(NC(=O)c5cccc(C(F)(F)F)c5)ccc3C)C4)cn2)CC1	402
CCN1CCN(C(=O)c2ccc(Nc3ncc4c(n3)N(C)C(=O)N(c3cc(NC(=O)c5ccc(CN6CCC(N(C)C)C6)c(C(F)(F)F)c5)ccc3C)C4)cn2)CC1 (configuration not stated)	704

From here, focus on the item given below.
Exercise: Indicate its recorded GI50 at 72 h; the compound in question is `CCN1CCN(c2ccc(Nc3ncc4c(n3)N(C)C(=O)N(c3cc(NC(=O)c5cccc(C(F)(F)F)c5)ccc3C)C4)cc2)CC1`
Solution: 559

----------
test_protocol: Metabolic stability in rat liver microsomes assessed as compound remaining at 1 uM after 30 mins
Assay type: ADME, microsome
condition_details: read-out: Stability
outcome_measure: remaining at 0.5 h, 1 µM (%)
Provide only the numeric value, understood in %.

Sample records with remaining at 0.5 h, 1 µM:
compound	units_symbol	value_observed
Cc1ccc(Nc2ncc3c(n2)N(C)C(=O)N(c2cc(NC(=O)c4ccc(CN5CCC(N(C)C)C5)c(C(F)(F)F)c4)ccc2C)C3)cn1 (stereo not drawn)	%	76.5
Cc1cc(Nc2ncc3c(n2)N(C)C(=O)N(c2cc(NC(=O)c4cccc(C(F)(F)F)c4)ccc2C)C3)n(C)n1	%	82.3

Exercise: Indicate its recorded remaining at 0.5 h, 1 µM; the compound in question is `CCN1CCN(C(=O)c2ccc(Nc3ncc4c(n3)N(C)C(=O)N(c3cc(NC(=O)c5cccc(C(F)(F)F)c5)ccc3C)C4)cn2)CC1`
Solution: 38.3

----------
test_protocol: Metabolic stability in mouse liver microsomes assessed as compound remaining at 1 uM after 30 mins
Assay type: ADME, microsome
condition_details: read-out: Stability
The following compounds are shown together with reported remaining at 0.5 h, 1 µM values.
Provide only the numeric value, understood in %.

Exercise: Indicate its recorded remaining at 0.5 h, 1 µM; the compound in question is `Cc1cc(Nc2ncc3c(n2)N(C)C(=O)N(c2cc(NC(=O)c4cccc(C(F)(F)F)c4)ccc2C)C3)n(C)n1`
Solution: 74.7

----------
target_of_assay: Mitogen-activated protein kinase kinase kinase kinase 2 (Homo sapiens, UniProt Q12851)
Sequence (Q12851 whole entry): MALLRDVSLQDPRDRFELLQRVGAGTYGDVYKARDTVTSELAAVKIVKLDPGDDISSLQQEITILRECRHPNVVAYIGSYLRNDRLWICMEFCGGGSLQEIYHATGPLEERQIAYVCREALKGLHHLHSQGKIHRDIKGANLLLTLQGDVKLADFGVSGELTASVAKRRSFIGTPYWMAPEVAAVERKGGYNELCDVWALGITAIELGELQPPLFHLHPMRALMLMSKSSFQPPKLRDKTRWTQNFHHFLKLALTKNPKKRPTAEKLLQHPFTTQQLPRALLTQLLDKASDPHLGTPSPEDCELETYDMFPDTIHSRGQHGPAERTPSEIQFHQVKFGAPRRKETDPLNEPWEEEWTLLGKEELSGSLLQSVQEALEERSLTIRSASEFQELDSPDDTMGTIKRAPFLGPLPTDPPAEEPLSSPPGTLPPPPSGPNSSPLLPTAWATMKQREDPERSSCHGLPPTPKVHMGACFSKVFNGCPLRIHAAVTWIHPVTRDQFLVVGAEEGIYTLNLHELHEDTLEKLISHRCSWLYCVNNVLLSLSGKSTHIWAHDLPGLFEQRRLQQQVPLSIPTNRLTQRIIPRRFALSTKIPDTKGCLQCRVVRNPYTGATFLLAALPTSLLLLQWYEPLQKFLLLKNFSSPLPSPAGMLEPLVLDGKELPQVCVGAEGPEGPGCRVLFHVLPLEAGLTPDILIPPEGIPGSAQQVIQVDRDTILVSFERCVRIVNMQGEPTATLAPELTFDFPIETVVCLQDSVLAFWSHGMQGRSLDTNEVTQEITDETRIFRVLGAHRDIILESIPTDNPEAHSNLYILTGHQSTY
test_protocol: Inhibition of GCK (unknown origin) by radiometric biochemical kinase assay
outcome_measure: IC50 (nM)
Provide only the numeric value, understood in nM.

molecule	target_of_assay	IC50 [nM]
CCN1CCN(c2ccc(Nc3ncc4c(n3)N(C)C(=O)N(c3cc(NC(=O)c5cccc(C(F)(F)F)c5)ccc3C)C4)cc2)CC1	Mitogen-activated protein kinase kinase kinase kinase 2 (Homo sapiens, UniProt Q12851)	8
Cc1ccc(NC(=O)c2ccc(CN3CCC(N(C)C)C3)c(C(F)(F)F)c2)cc1N1Cc2cnc(Nc3cnn(C)c3)nc2N(C)C1=O (stereo unspecified)	Mitogen-activated protein kinase kinase kinase kinase 2 (Homo sapiens, UniProt Q12851)	8
CCN1CCN(c2ccc(Nc3ncc4c(n3)N(C)C(=O)N(c3cc(NC(=O)c5cccc(C(F)(F)F)c5)ccc3C)C4)cn2)CC1	Mitogen-activated protein kinase kinase kinase kinase 2 (Homo sapiens, UniProt Q12851)	7
CC(=O)N1CCN(c2ccc(Nc3ncc4c(n3)N(C)C(=O)N(c3cc(NC(=O)c5ccc(CN6CCC(N(C)C)C6)c(C(F)(F)F)c5)ccc3C)C4)cn2)CC1 (stereo unspecified)	Mitogen-activated protein kinase kinase kinase kinase 2 (Homo sapiens, UniProt Q12851)	16
CCN1CCN(C(=O)c2ccc(Nc3ncc4c(n3)N(C)C(=O)N(c3cc(NC(=O)c5ccc(CN6CCC(N(C)C)C6)c(C(F)(F)F)c5)ccc3C)C4)cn2)CC1 (stereo unspecified)	Mitogen-activated protein kinase kinase kinase kinase 2 (Homo sapiens, UniProt Q12851)	14

From here, focus on the item given below.
Exercise: Indicate its recorded IC50; the molecule in question is Cc1cc(Nc2ncc3c(n2)N(C)C(=O)N(c2cc(NC(=O)c4ccc(CN5CCC(N(C)C)C5)c(C(F)(F)F)c4)ccc2C)C3)n(C)n1 (stereo unspecified)
Solution: 17

----------
target_of_assay: UniProt P08684
test_protocol: Inhibition of CYP3A4 (unknown origin) assessed as activity remaining at 10 uM relative to control
Format: ADME
condition_details: read-out: Activity
The following compounds are shown together with reported activity at 10 µM values.
Provide only the numeric value, understood in %.

compound	units_symbol	activity at 10 µM
CC(=O)N1CCN(c2ccc(Nc3ncc4c(n3)N(C)C(=O)N(c3cc(NC(=O)c5cccc(C(F)(F)F)c5)ccc3C)C4)cn2)CC1	%	88.5

Exercise: Indicate its recorded activity at 10 µM; the compound in question is Cc1ccc(Nc2ncc3c(n2)N(C)C(=O)N(c2cc(NC(=O)c4ccc(CN5CCC(N(C)C)C5)c(C(F)(F)F)c4)ccc2C)C3)cn1 (stereo not given)
Solution: 21.6

----------
The following molecules are shown together with reported IC50 values.
target_of_assay: Mitogen-activated protein kinase kinase kinase kinase 2 (Homo sapiens, UniProt Q12851)
test_protocol: Inhibition of GCK (unknown origin) by radiometric biochemical kinase assay
Provide only the numeric value, understood in nM.

Sample records with IC50:
smiles_data	IC50 (nM)
Cc1ccc(Nc2ncc3c(n2)N(C)C(=O)N(c2cc(NC(=O)c4cccc(C(F)(F)F)c4)ccc2C)C3)cn1	8
Cc1ccc(NC(=O)c2cccc(C(F)(F)F)c2)cc1N1Cc2cnc(Nc3cnn(C)c3)nc2N(C)C1=O	6

Exercise: Indicate its recorded IC50; the molecule in question is `Cc1ccc(Nc2ncc3c(n2)N(C)C(=O)N(c2cc(NC(=O)c4ccc(N5CCN(C)CC5)c(C(F)(F)F)c4)ccc2C)C3)cn1`
Solution: 10

----------
test_protocol: Metabolic stability in mouse liver microsomes assessed as compound remaining at 1 uM after 30 mins
Type: ADME, microsome
condition_details: read-out: Stability
The following compounds are shown together with reported remaining at 0.5 h, 1 µM values.
Provide only the numeric value, understood in %.

Sample records with remaining at 0.5 h, 1 µM:
compound	remaining at 0.5 h, 1 µM (%)
Cc1ccc(NC(=O)c2cccc(C(F)(F)F)c2)cc1N1Cc2cnc(Nc3cnn(C)c3)nc2N(C)C1=O	73.3
CC(=O)N1CCN(c2ccc(Nc3ncc4c(n3)N(C)C(=O)N(c3cc(NC(=O)c5cccc(C(F)(F)F)c5)ccc3C)C4)cn2)CC1	49.1

From here, focus on the item given below.
Exercise: Indicate its recorded remaining at 0.5 h, 1 µM; the compound in question is Cc1ccc(Nc2ncc3c(n2)N(C)C(=O)N(c2cc(NC(=O)c4ccc(CN5CCC(N(C)C)C5)c(C(F)(F)F)c4)ccc2C)C3)cn1 (stereo not drawn)
Solution: 58.7

----------
The following molecules are shown together with reported activity at 10 µM values.
target_of_assay: CYP3A4 (Homo sapiens, UniProt P08684)
Sequence (P08684 whole entry): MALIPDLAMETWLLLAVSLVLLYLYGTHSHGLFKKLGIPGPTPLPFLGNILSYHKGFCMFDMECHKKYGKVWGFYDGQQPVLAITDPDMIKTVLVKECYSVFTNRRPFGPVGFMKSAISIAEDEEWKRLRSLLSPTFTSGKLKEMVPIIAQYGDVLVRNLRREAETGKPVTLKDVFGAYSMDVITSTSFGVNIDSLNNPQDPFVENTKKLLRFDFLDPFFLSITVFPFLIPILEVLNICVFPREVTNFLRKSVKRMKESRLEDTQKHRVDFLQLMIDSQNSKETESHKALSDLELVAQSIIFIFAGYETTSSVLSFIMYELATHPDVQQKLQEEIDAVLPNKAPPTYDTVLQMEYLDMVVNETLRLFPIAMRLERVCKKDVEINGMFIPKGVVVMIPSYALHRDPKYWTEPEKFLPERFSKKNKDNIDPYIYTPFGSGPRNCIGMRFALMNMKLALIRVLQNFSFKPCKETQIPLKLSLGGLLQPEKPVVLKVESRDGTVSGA
test_protocol: Inhibition of CYP3A4 (unknown origin) assessed as activity remaining at 10 uM relative to control
Assay type: ADME
condition_details: read-out: Activity

smiles_data	activity at 10 µM
Cc1ccc(NC(=O)c2cccc(C(F)(F)F)c2)cc1N1Cc2cnc(N)nc2N(C)C1=O	> 100%

Exercise: Indicate its recorded activity at 10 µM; the molecule in question is `Cc1ccc(NC(=O)c2cccc(C(F)(F)F)c2)cc1N1Cc2cnc(Nc3cnn(C)c3)nc2N(C)C1=O`
Solution: > 100%

Exercise: Indicate its recorded activity at 10 µM; the molecule in question is `Cc1cc(Nc2ncc3c(n2)N(C)C(=O)N(c2cc(NC(=O)c4cccc(C(F)(F)F)c4)ccc2C)C3)n(C)n1`
Solution: > 100%
